The reported measurements were obtained from ChEMBL document CHEMBL3272039.

Species on record: Bos taurus
Assay: Displacement of ethidium bromide from calf thymus DNA by spectrofluorometric analysis
measurement type: C50 (µM)

{"smiles str": "Cl.c1ccc(OCCCCCCCCNc2ccnc3ccccc23)c(Nc2c3ccccc3nc3ccccc23)c1", "measurement type": "C50", "measured number": 0.6}
{"smiles str": "c1ccc2c(NCCCCCCCCCCCCCCNc3c4ccccc4nc4ccccc34)c3ccccc3nc2c1", "measurement type": "C50", "measured number": 0.14}
{"smiles str": "Br.O=S(=O)(CCCNc1ccnc2ccccc12)Nc1ccc(Nc2c3ccccc3nc3ccccc23)cc1", "measurement type": "C50", "measured number": 0.12}
{"smiles str": "Cl.O.O=S(=O)(CCCCCNc1ccnc2ccccc12)Nc1ccc(Nc2c3ccccc3nc3ccccc23)cc1", "measurement type": "C50", "measured number": 0.4}
{"smiles str": "COc1cc(NS(=O)(=O)CCCCCS(=O)(=O)Nc2ccc(Nc3c4ccccc4nc4ccccc34)c(OC)c2)ccc1Nc1c2ccccc2nc2ccccc12.CS(=O)(=O)O.O", "measurement type": "C50", "measured number": 0.14}
{"smiles str": "Cl.O.c1ccc(OCCCCCCCNc2ccnc3ccccc23)c(Nc2c3ccccc3nc3ccccc23)c1", "measurement type": "C50", "measured number": 0.71}
{"smiles str": "c1ccc2c(NCCCCCCCNc3c4ccccc4nc4ccccc34)c3ccccc3nc2c1", "measurement type": "C50", "measured number": 0.1}
{"smiles str": "c1ccc2c(NCCNc3c4ccccc4nc4ccccc34)c3ccccc3nc2c1", "measurement type": "C50", "measured number": 0.7}

---

Organism: Bos taurus
Assay: Displacement of ethidium bromide from calf thymus DNA by spectrofluorometric analysis
C50 values for the molecules below.
measurement type: C50

{"molecule": "COc1cc(NS(C)(=O)=O)ccc1Nc1c2ccccc2nc2ccccc12 [AMSACRINE]", "result": "10.8 µM"}
{"molecule": "Cl.c1ccc(OCCCCOc2ccccc2Nc2c3ccccc3nc3ccccc23)c(Nc2c3ccccc3nc3ccccc23)c1", "result": "0.8 µM"}
{"molecule": "Cl.O.c1ccc(OCCOc2ccccc2Nc2c3ccccc3nc3ccccc23)c(Nc2c3ccccc3nc3ccccc23)c1", "result": "0.4 µM"}

---

Experiment: Toxicity in ip dosed BDF1 mouse allografted with mouse P388 cells administered qd for 5 days
Assay type: organism-based
Details: BDF1, mouse, in vivo
measurement type: log10 of MTD at 120 h (log10 of the value in mg/kg/day)

{"compound": "Cl.O.O=S(=O)(CCCCNc1c2ccccc2nc2ccccc12)Nc1ccc(Nc2c3ccccc3nc3ccccc23)cc1", "log10 of MTD at 120 h": 1.57}
{"compound": "Cl.c1ccc(OCCCCCCCCNc2ccnc3ccccc23)c(Nc2c3ccccc3nc3ccccc23)c1", "log10 of MTD at 120 h": 1.49}
{"compound": "COc1cc(NS(=O)(=O)CCCCS(=O)(=O)Nc2ccc(Nc3c4ccccc4nc4c(C(N)=O)cccc34)c(OC)c2)ccc1Nc1c2ccccc2nc2c(C(N)=O)cccc12.Cl.O", "log10 of MTD at 120 h": 1.04}
{"compound": "COc1cc(NS(=O)(=O)CCCCS(=O)(=O)Nc2ccc(Nc3ccnc4ccccc34)c(OC)c2)ccc1Nc1ccnc2ccccc12.Cl.O", "log10 of MTD at 120 h": 1.08}
{"compound": "CS(=O)(=O)Nc1ccc(Nc2ccnc3ccccc23)cc1", "log10 of MTD at 120 h": 2.30}
{"compound": "COc1cc(NS(=O)(=O)CCCCCCS(=O)(=O)Nc2ccc(Nc3c4ccccc4nc4ccccc34)c(OC)c2)ccc1Nc1c2ccccc2nc2ccccc12.Cl.O", "log10 of MTD at 120 h": 2.43}
{"compound": "Cl.O.c1ccc(OCCCCCCCNc2ccnc3ccccc23)c(Nc2c3ccccc3nc3ccccc23)c1", "log10 of MTD at 120 h": 1.40}
{"compound": "Cl.Nc1c2ccccc2nc2ccccc12 [AMINACRINE HYDROCHLORIDE]", "log10 of MTD at 120 h": 1.10}
{"compound": "Cl.O.c1ccc(OCCCCCCNc2ccnc3ccccc23)c(Nc2c3ccccc3nc3ccccc23)c1", "log10 of MTD at 120 h": 1.18}
{"compound": "Br.O.O=S(=O)(CCCCCCNc1ccnc2ccccc12)Nc1ccc(Nc2c3ccccc3nc3ccccc23)cc1", "log10 of MTD at 120 h": 1.88}
{"compound": "Cl.c1ccc(OCCCOc2ccccc2Nc2c3ccccc3nc3ccccc23)c(Nc2c3ccccc3nc3ccccc23)c1", "log10 of MTD at 120 h": 1.70}
{"compound": "Br.O=S(=O)(CCCNc1ccnc2ccccc12)Nc1ccc(Nc2c3ccccc3nc3ccccc23)cc1", "log10 of MTD at 120 h": 2.57}
{"compound": "c1ccc2c(NCCCCNc3c4ccccc4nc4ccccc34)c3ccccc3nc2c1", "log10 of MTD at 120 h": 1.00}
{"compound": "c1ccc(Nc2c3ccccc3nc3ccccc23)cc1", "log10 of MTD at 120 h": 2.02}
{"compound": "CCN(CC)CCCC(C)Nc1ccnc2cc(Cl)ccc12.Cl (centres undefined)", "log10 of MTD at 120 h": 1.60}
{"compound": "Cl.c1ccc(OCCCCOc2ccccc2Nc2ccnc3ccccc23)c(Nc2ccnc3ccccc23)c1", "log10 of MTD at 120 h": 1.40}
{"compound": "Cl.O.c1ccc(OCCOc2ccccc2Nc2c3ccccc3nc3ccccc23)c(Nc2c3ccccc3nc3ccccc23)c1", "log10 of MTD at 120 h": 2.10}
{"compound": "CCN(CC)CCCC(C)Nc1c2ccc(Cl)cc2nc2ccc(OC)cc12.CS(C)(=O)=O (centres undefined)", "log10 of MTD at 120 h": 1.95}
{"compound": "Cl.O=S(=O)(CCCCCCNc1c2ccccc2nc2ccccc12)Nc1ccc(Nc2c3ccccc3nc3ccccc23)cc1", "log10 of MTD at 120 h": 2.18}
{"compound": "CS(=O)(=O)Nc1ccc(Nc2c3ccccc3nc3c(C(N)=O)cccc23)c(OCCCCOc2cc(NS(C)(=O)=O)ccc2Nc2c3ccccc3nc3c(C(N)=O)cccc23)c1.Cl.O", "log10 of MTD at 120 h": 2.44}
